Run description: BJeLR cell viability loss, primary screen, luminescence, CellTiterGlo ATP (AID 2275);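 note: higher score means fewer live cells and less ATP luminescence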
Condition description: BJeLR fibroblasts viability, 48 h, hits give high values, HRASV12, hTERT and SV40 LT/ST transformed, concentration not given here
About 190 (0.63%) of roughly 30,000 compounds were called active. The entries come from a sample that favours actives as a whole.
For each record, write down the corresponding viability loss activity score.
Numbers only, in %.

Solved cases below.
Molecule	viability loss activity score, %
Nn1c(C(=O)N2CCCC2)nc2ccccc2c1=O	-0.611
CN1/C(=C/C(=S)C(C)(C)C)Sc2ccccc21	0.712
O=C(CSc1ccccn1)NCc1ccccc1	-3.11
Cn1c(Cc2nc(-c3cnccn3)no2)nnc1SCC(=O)Nc1ccc(Cl)cc1	-7.21
CC(=O)N(c1nc(-c2cc3ccccc3oc2=O)cs1)c1cccc(C)c1C	5.58

Would you mind giving viability loss activity score for every molecule in the list below?
1. N#Cc1c(-c2ccccc2)c(-c2ccccc2)nn(CC(=O)NN)c1=O
2. Cc1ccc(-n2nnnc2-c2cnn(-c3ccccc3)c2C)cc1
3. CC1=C(C(=O)Nc2ccccc2Br)C2(CCCCC2)OC1=O
4. CCS(=O)(=O)C(=C(Nc1ccccc1)Nc1ccccc1)S(=O)(=O)CC
5. Cc1ccc(S(=O)(=O)N(C)C[C@@H]2Oc3ccc(NS(=O)(=O)c4cccs4)cc3C(=O)N([C@@H](C)CO)C[C@H]2C)cc1

[26.9, -4, -3.85, 21.6, -3.75]

Would you mind giving viability loss activity score for every molecule in the list below?
1. CC(C)n1c(SCC(=O)O)nc2cc(Cl)ccc21
2. Cc1cccc[n+]1C/C=C\c1ccccc1
3. O=C1CSC(c2ccc(Cl)cc2)N1Nc1nc(Nc2ccccc2)nc(N2CCCCC2)n1 (configuration not stated)

2.11
13.2
-7.31

----------
Run description: BJeLR cell viability loss, primary screen, luminescence, CellTiterGlo ATP (AID 2275);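 note: higher score means fewer live cells and less ATP luminescence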
Condition description: BJeLR fibroblasts viability, 48 h, hits give high values, HRASV12, hTERT and SV40 LT/ST transformed, concentration not given here
Among all 30,000 compounds or so, about 190 (0.63%) were called active. This is one part of a sample in which actives are shown more often than they occur.
For each record, write down the corresponding viability loss activity score.
Give bare numbers, in %.

Solved cases below.
Compound	Experimental result
CC(C)(C)c1nc(=S)[nH][nH]1	-5.55
CCN(C(=O)CSc1nc2ccccc2c2nc3ccccc3n12)c1cccc(C)c1	0.323
CCOc1cc(CNc2ccc(OC)cc2)ccc1OCC(=O)NC(C)(C)C	-0.358
CC(=O)OCCn1c(=O)c2ccccc2c2ccccc2c1=O	0.959
COc1ccc(-n2nc(C(=O)NC3CCCC(C)C3C)c3c4ccccc4n(C)c3c2=O)cc1 (stereo not given)	0.653

Would you mind giving viability loss activity score for every compound in the list below?
1. CCN(CC)C(=O)Cn1cc(SCc2ccccc2)c2ccccc21
2. Cc1ccccc1NC(=O)Nc1ccccc1N1CCCCC1

1. -2.18
2. 1.43

Would you mind giving viability loss activity score for every compound in the list below?
1. C[C@@H]1CN([C@H](C)CO)C(=O)c2cc(NS(=O)(=O)c3cccs3)ccc2O[C@@H]1CN(C)Cc1ccc(C(F)(F)F)cc1
2. NNC(=O)CN1C(c2ccc(Cl)cc2)=Nc2ccc(Cl)cc2C1c1ccccc1 (stereo not given)
3. CNC(=O)NC(=O)CSc1ncnc2sc(-c3ccccc3)cc12

1. 0.614
2. 4.53
3. 7.62

----------
For each record, write down the corresponding viability loss activity score.
Run description: BJeLR cell viability loss, primary screen, luminescence, CellTiterGlo ATP (AID 2275);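 note: higher score means fewer live cells and less ATP luminescence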
Condition description: BJeLR fibroblasts viability, 48 h, hits give high values, HRASV12, hTERT and SV40 LT/ST transformed, concentration not given here
Screen size: about 30,000 compounds; about 190 (0.63%) were called active. The entries come from a sample that favours actives as a whole.
Give bare numbers, in %.

Mol smiles	Experimental result
O=C(Nc1cccc(-c2nc3ccccc3o2)c1)c1cccc(OCc2ccccc2)c1	10.7
Cc1ccc(S(=O)(=O)N(CC(=O)Nc2ccc3c(c2)OCCO3)C2CCCCC2)cc1	-4.45
Cc1ccc(S(=O)(=O)c2no[n+]([O-])c2S(=O)(=O)c2ccc(C)cc2)cc1	62

Would you mind giving viability loss activity score for every compound in the list below?
1. Cc1ccccc1C(=O)Nc1ccc(NC(=O)c2ccc(C(C)(C)C)cc2)cc1
2. Cc1ccc(S(=O)(=O)n2c(C)cc(C(=O)O)c2C)cc1

-4.36
-6.81

Entry COc1ccc(Cn2c(=O)oc3ccccc32)cc1 has what viability loss activity score?
-1.69

----------
Run description: BJeLR cell viability loss, primary screen, luminescence, CellTiterGlo ATP (AID 2275);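 note: higher score means fewer live cells and less ATP luminescence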
Condition description: BJeLR fibroblasts viability, 48 h, hits give high values, HRASV12, hTERT and SV40 LT/ST transformed, concentration not given here
Among all 30,000 compounds or so, about 190 (0.63%) were called active. What follows is part of a selection rich in actives, with near analogues and random picks from the rest.
Quantity kind: viability loss activity score (%)
Give bare numbers, in %.

Solved cases below.
Compound	Experimental result
Cc1cc(Sc2nnc(C)s2)c2ccccc2n1	34.4
CCOC(=O)c1c(NC(=S)Nc2ccc(OC)cc2)sc2c1CC(C(C)C)OC2 (stereo not drawn)	3.67
C[C@H]1O[C@@H](O[C@H]2[C@@H](O)C[C@H](O[C@H]3[C@@H](O)C[C@H](O[C@H]4CC[C@]5(C)C6C[C@@H](O)[C@]7(C)[C@@H](C8=CC(=O)OC8)CC[C@]7(O)C6CC[C@@H]5C4)O[C@@H]3C)O[C@@H]2C)C[C@H](O)[C@@H]1O (stereo partly drawn)	129
CC(c1ccccc1)N1C(=O)c2ccccc2C1Nc1ccc(F)cc1 (stereo not drawn)	-2.92
COc1ccc(NC(=O)Nc2cccc3c2O[C@@H](CN(C)C(=O)NC(C)C)[C@H](C)CN([C@H](C)CO)C3=O)cc1	-0.272

Would you mind giving viability loss activity score for every compound in the list below?
1. CCc1c(C)c(C#N)c2nc3ccccc3n2c1-n1ccnc1
2. COc1cc(OC)cc(C2C(C#N)=C(N)OC(N)=C2C#N)c1
3. CCCCS(=O)CSc1nc(-c2ccc(OC)cc2)cc(-c2ccccc2)c1C#N (stereo not drawn)

1. 1.77
2. 1.86
3. -8.8

----------
Run description: BJeLR cell viability loss, primary screen, luminescence, CellTiterGlo ATP (AID 2275);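 note: higher score means fewer live cells and less ATP luminescence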
Condition description: BJeLR fibroblasts viability, 48 h, hits give high values, HRASV12, hTERT and SV40 LT/ST transformed, concentration not given here
The campaign covered roughly 30,000 compounds. About 190 (0.63%) were called active. Many of the other results were omitted from the sample, so actives are more common in it than they were.
For each record, write down the corresponding viability loss activity score.
Numbers only, in %.

Molecule	viability loss activity score, %
C/C=C(/C)C(=O)O[C@H]1CC(C)(C)C[C@H]2C3=CCC4[C@@]5(C)CC[C@H](O[C@@H]6O[C@H](C(=O)O)[C@@H](O[C@@H]7O[C@H](CO)[C@H](O)[C@H](O)[C@H]7O[C@@H]7O[C@H](CO)[C@@H](O)[C@H](O)[C@H]7O)[C@H](O)[C@H]6O[C@@H]6O[C@@H](C)[C@H](O)[C@@H](O)[C@H]6O)C(C)(C)C5CC[C@@]4(C)[C@]3(C)[C@@H](O)[C@@H](O)[C@@]12CO (stereo partly drawn)	104

Would you mind giving viability loss activity score for every molecule in the list below?
1. Cc1oc2cc(Br)c(OC(=O)c3ccco3)cc2c1C(=O)OC(C)C
2. COc1ccc(-c2nn(-c3ccc(C)c(Cl)c3)c3c2cnc2ccc(F)cc23)cc1OC
3. C=CC1(C)C=C2CCC3C(C)(C)C(O[C@@H]4O[C@@H](CO)[C@H](O)[C@H]4O)CCC3(C)C2CC1O[C@@H]1O[C@H](C)[C@@H](OC)[C@H](O)[C@H]1O (stereo partly drawn)
4. COc1ccc(/C=C/C(=O)O[C@@H]2[C@@H](OC(=O)/C=C/c3ccc(OC)cc3)[C@H](C)O[C@@H](O[C@H]3[C@@H]4C=CO[C@@H](O[C@@H]5O[C@H](CO)[C@@H](O)[C@H](O)[C@H]5O)[C@@H]4[C@@]4(CO)O[C@@H]34)[C@@H]2OC(C)=O)cc1

-1.39
-4.15
-5.62
-3.51

Would you mind giving viability loss activity score for every molecule in the list below?
1. CCOC(=O)c1cc2c(C)n(-c3ccccc3)c(C)c2cc(C(=O)OCC)c1=O
2. O=C(Nn1cnc2ccccc2c1=O)c1ccccc1
3. COc1ccc(S(=O)(=O)Nc2cccc3c2O[C@@H](CN(C)Cc2ccc(-c4ccccc4)cc2)[C@H](C)CN([C@H](C)CO)C3=O)cc1
4. COc1cc(S(=O)(=O)N2CCCCCCC2)ccc1-n1cnnn1
5. O=S(=O)(Nc1ccccc1C(F)(F)F)c1ccc2c(c1)CCO2

-1.14
3.68
1.26
-2.51
2.04

Every entry's value here was drawn from PubChem BioAssay AID2275.
